Values compiled from patent US11807693B2.

# assay.comment: In vitro stability in rat liver homogenate
# Assay type: in vitro ADME
# condition: tissue homogenate
Starred links: 1 amine or outer side, 2 acyl side, 3 side chain; linkers in the order of their positions; H or OH if unused. Non-standard residues stand in square brackets, D forms with d. Residues, ends and D or L forms follow the SMILES beside them. *: point of attachment. Phe(4-Cl) = N[C@@H](Cc1ccc(Cl)cc1)C(=O)O; γGlu = O=C(O)[C@H](CCC(=O)[*:2])N[*:1]; NMeR = CN[C@@H](CCCNC(=N)N)C(=O)O; Tridecanoyl = CCCCCCCCCCCCC(=O)*; Nle = CCCC[C@H](N)C(=O)O; AEEA = NCCOCCOCC(=O)O; βAla = NCCC(=O)O
measure.name: remaining at 4 h, 5 μM

According to the records, this compound `CCCCCCCCCCCCC(=O)N[C@@H](CCC(=O)NCCOCCOCC(=O)NCCOCCOCC(=O)N[C@@H](CCC(N)=O)C(=O)N[C@@H](CCCNC(=N)N)C(=O)N1CCC[C@H]1C(=O)N(C)[C@@H](CCCNC(=N)N)C(=O)N[C@@H](CC(C)C)C(=O)N[C@@H](CO)C(=O)N[C@@H](Cc1c[nH]cn1)C(=O)N[C@@H](CCCCN)C(=O)NCC(=O)N1CCC[C@H]1C(=O)N[C@@H](CCCC)C(=O)N1CCC[C@H]1C(=O)N[C@@H](Cc1ccc(Cl)cc1)C(=O)O)C(=O)O` displays remaining at 4 h, 5 μM of < 1%

remaining at 4 h, 5 μM recorded for this compound, CCCCCCCCCCCCC(=O)N[C@@H](CCC(=O)NCCOCCOCC(=O)NCCOCCOCC(=O)N[C@@H](CCC(N)=O)C(=O)N[C@H](CCCNC(=N)N)C(=O)N1CCC[C@H]1C(=O)N(C)[C@@H](CCCCNC(=N)N)C(=O)NC(CC(=O)N[C@@H](CO)C(=O)N[C@@H](Cc1c[nH]cn1)C(=O)N[C@@H](CCCCN)C(=O)NCC(=O)N1CCC[C@H]1C(=O)N[C@@H](CCCC)C(=O)N1CCC[C@H]1C(=O)N[C@@H](Cc1ccc(Cl)cc1)C(=O)O)C(C)C)C(=O)O (stereo partly drawn) , is < 1%

Short answer for CCCCCCCCCCCCC(=O)N[C@@H](CCC(=O)NCCOCCOCC(=O)NCCOCCOCC(=O)N[C@@H](CCC(N)=O)C(=O)N[C@@H](CCCNC(=N)N)C(=O)N1CCC[C@H]1C(=O)N(C)[C@@H](CCCNC(=N)N)C(=O)N[C@@H](CC(C)C)C(=O)N[C@@H](CO)C(=O)N[C@@H](Cc1c[nH]cn1)C(=O)N[C@@H](CCCCN)C(=O)NCC(=O)N1CCC[C@H]1C(=O)N[C@@H](CCCC)C(=O)NCCC(=O)N[C@@H](Cc1ccc(Cl)cc1)C(=O)O)C(=O)O [compound 425] ({Tridecanoyl-γGlu-AEEA-AEEA}-QRP[NMeR]LSHKGP[Nle][βAla][Phe(4-Cl)]-OH) : remaining at 4 h, 5 μM was < 1%

Value of measured remaining at 4 h, 5 μM for the entry `CCCCCCCCCCCCC(=O)N[C@@H](CCC(=O)NCCOCCOCC(=O)NCCOCCOCC(=O)N[C@@H](CCC(N)=O)C(=O)N[C@@H](CCCNC(=N)N)C(=O)N1CCC[C@H]1C(=O)N(C)[C@@H](CCCNC(=N)N)C(=O)N[C@@](C)(CC(C)C)C(=O)N[C@@H](CO)C(=O)N[C@@H](Cc1c[nH]cn1)C(=O)N[C@@H](CCCCN)C(=O)NCC(=O)N1CCC[C@H]1C(=O)N[C@@H](CCCC)C(=O)N1CCC[C@H]1C(=O)N[C@@H](Cc1ccc(Cl)cc1)C(=O)O)C(=O)O` : < 1%

Recorded result, `CCCCCCCCCCCCC(=O)N[C@@H](CCC(=O)NCCOCCOCC(=O)NCCOCCOCC(=O)N[C@@H](CCC(N)=O)C(=O)N[C@@H](CCCNC(=N)N)C(=O)N[C@@H](CCC(=O)O)C(=O)N(C)[C@@H](CCCNC(=N)N)C(=O)N[C@@H](CC(C)C)C(=O)N[C@@H](CO)C(=O)N[C@@H](Cc1c[nH]cn1)C(=O)N[C@@H](CCCCN)C(=O)NCC(=O)N1CCC[C@H]1C(=O)N[C@@H](CCCC)C(=O)N1CCC[C@H]1C(=O)N[C@@H](Cc1ccc(Cl)cc1)C(=O)O)C(=O)O` , remaining at 4 h, 5 μM: < 1%

remaining at 4 h, 5 μM for `CCCCCCCCCCCCC(=O)N[C@@H](CCC(=O)NCCOCCOCC(=O)NCCOCCOCC(=O)N[C@@H](CCC(N)=O)C(=O)N[C@@H](CCCNC(=N)N)C(=O)N1CCC[C@H]1C(=O)N(C)[C@@H](CCCNC(=N)N)C(=O)N[C@@H](CC(C)C)C(=O)N[C@@H](CO)C(=O)N[C@@H](Cc1c[nH]cn1)C(=O)N[C@@H](CCCCN)C(=O)NCC(=O)N1CCC[C@H]1C(=O)N[C@@H](CCCC)C(=O)N1CCC[C@@]1(C)C(=O)N[C@@H](Cc1ccc(Cl)cc1)C(=O)O)C(=O)O` is 1%

---

# target.of.assay: human APJ receptor (Homo sapiens, UniProt P35414)
# Construct: expressed in transfected cells
# Sequence (P35414 1-380): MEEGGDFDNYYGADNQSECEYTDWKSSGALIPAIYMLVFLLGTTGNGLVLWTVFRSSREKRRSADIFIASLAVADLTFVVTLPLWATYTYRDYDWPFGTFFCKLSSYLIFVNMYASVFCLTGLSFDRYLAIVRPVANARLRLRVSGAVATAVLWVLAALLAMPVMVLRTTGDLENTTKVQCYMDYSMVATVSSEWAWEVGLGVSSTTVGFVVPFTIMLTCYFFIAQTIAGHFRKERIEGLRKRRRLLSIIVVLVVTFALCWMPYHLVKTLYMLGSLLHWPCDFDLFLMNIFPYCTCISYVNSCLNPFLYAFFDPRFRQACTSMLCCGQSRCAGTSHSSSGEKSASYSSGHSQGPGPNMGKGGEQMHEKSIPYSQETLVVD
# assay.comment: [35S] GTPγS assay, human APJ receptor
# Assay type: biochemical
# condition: Table 16
Starred links: 1 amine or outer side, 2 acyl side, 3 side chain; linkers in the order of their positions; H or OH if unused. Non-standard residues stand in square brackets, D forms with d. Residues, ends and D or L forms follow the SMILES beside them. *: point of attachment. Phe(4-Cl) = N[C@@H](Cc1ccc(Cl)cc1)C(=O)O; γGlu = O=C(O)[C@H](CCC(=O)[*:2])N[*:1]; Tridecanoyl = CCCCCCCCCCCCC(=O)*; Nle = CCCC[C@H](N)C(=O)O; AEEA = NCCOCCOCC(=O)O
measure.name: EC50 (nM)
API: value field is a number in nM; no unit string.

Result for CCCCCCCCCCCCC(=O)N[C@@H](CCC(=O)NCCOCCOCC(=O)NCCOCCOCC(=O)N[C@@H](CCC(N)=O)C(=O)N[C@@H](CCCNC(=N)N)C(=O)N1CCC[C@H]1C(=O)N1CCC[C@H]1C(=O)N[C@@H](CC(C)C)C(=O)N[C@@H](CO)C(=O)N[C@@H](Cc1c[nH]cn1)C(=O)N[C@@H](CCCCN)C(=O)NCC(=O)N1CCC[C@H]1C(=O)N[C@@H](CCCC)C(=O)N1CCC[C@H]1C(=O)N[C@@H](Cc1ccc(Cl)cc1)C(=O)O)C(=O)O [compound 427] ({Tridecanoyl-γGlu-AEEA-AEEA}-QRPPLSHKGP[Nle]P[Phe(4-Cl)]-OH) , tested on human APJ receptor (Homo sapiens, UniProt P35414), EC50: 0.171

---

Task for the reader: assign each of the following compounds its reported remaining at 4 h, 5 μM.
# assay.comment: In vitro stability in rat plasma
# Type: in vitro ADME
# Procedure: Apelin peptides were spiked into rat plasma, liver homogenate, and kidney homogenate, which were obtained from commercial sources, to a final concentration of 5 μM. The samples were then incubated at 37° C. over a period of 4 hr. […] In a typical experiment, an aliquot of 100 μL of sample was taken from the incubation vial, followed by addition of 300 μL of MeOH containing internal standard. […] The supernatant was then analyzed by high resolution LC-MS. […]
Starred links: 1 amine or outer side, 2 acyl side, 3 side chain; linkers in the order of their positions; H or OH if unused. Non-standard residues stand in square brackets, D forms with d. Residues, ends and D or L forms follow the SMILES beside them. *: point of attachment. Phe(4-Cl) = N[C@@H](Cc1ccc(Cl)cc1)C(=O)O; γGlu = O=C(O)[C@H](CCC(=O)[*:2])N[*:1]; NMeR = CN[C@@H](CCCNC(=N)N)C(=O)O; Tridecanoyl = CCCCCCCCCCCCC(=O)*; Nle = CCCC[C@H](N)C(=O)O; AEEA = NCCOCCOCC(=O)O
Please answer using the number first and the unit second.

Data point: CCCCCCCCCCCCC(=O)N[C@@H](CCC(=O)NCCOCCOCC(=O)NCCOCCOCC(=O)N[C@@H](CCC(N)=O)C(=O)N[C@@H](CCC(=O)O)C(=O)N1CCC[C@H]1C(=O)N(C)[C@@H](CCCNC(=N)N)C(=O)N[C@@H](CC(C)C)C(=O)N[C@@H](CO)C(=O)N[C@@H](Cc1c[nH]cn1)C(=O)N[C@@H](CCCCN)C(=O)NCC(=O)N1CCC[C@H]1C(=O)N[C@@H](CCCC)C(=O)N1CCC[C@H]1C(=O)N[C@@H](Cc1ccc(Cl)cc1)C(=O)O)C(=O)O [compound 475] ({Tridecanoyl-γGlu-AEEA-AEEA}-QEP[NMeR]LSHKGP[Nle]P[Phe(4-Cl)]-OH) ; remaining at 4 h, 5 μM = 33%

Data point: `CCCC[C@H](NC(=O)[C@@H]1CCCN1C(=O)CNC(=O)[C@H](CCCCN)NC(=O)[C@H](Cc1c[nH]cn1)NC(=O)[C@H](CO)NC(=O)[C@](C)(CC(C)C)NC(=O)[C@H](CCCNC(=N)N)N(C)C(=O)[C@@H]1CCCN1C(=O)[C@H](CCCCNC(=N)N)NC(=O)[C@H](CCC(N)=O)NC(C)=O)C(=O)N1CCC[C@H]1C(=O)N[C@@H](Cc1ccc(Cl)cc1)C(=O)O` ; remaining at 4 h, 5 μM = 0%
